- Tested on: NCI-H522 lung
- Experimental details: NCI tumour cell line growth inhibition, 48 h
Measured metric: log10(TGI) (log10 of the value in µM)
Would you kindly interpret these values as log10 of TGI expressed in µM?

// solved cases for log10(TGI) follow
CCCCCCCC(=O)SCC/C=C/[C@@H]1CC(=O)NCc2cc(ccn2)C2=N[C@@](C)(CS2)C(=O)N[C@@H](C(C)C)C(=O)O1	-0.69
Cc1cc(-c2ccc3nc(C4CCOCC4)n(CCOC(F)(F)F)c3c2)cn(C)c1=O	0.97
C[Si](C)(C)C1(Sc2ccccc2)SCCCS1	1.84
N=C(N)SCc1ccc2c(c1)Sc1ccccc1O2	0.49
ClCc1cccc(Cn2cnc3ncnc(Cl)c32)c1	1.38

Req: Consider the compound Cc1cccc(NC(=O)Cn2cnc3sc(C(=O)OC(C)C)c(C)c3c2=O)c1 . State its measured log10(TGI).
Resp: 1.65

###

- Tested on: HCT-15 colon
- Experimental details: NCI tumour cell line growth inhibition, 48 h
Quick reference for TGI among some molecules

CC1CCC(C(=O)O)(C(Br)C(=O)O)CC1 (stereo not given)	> 100 µM
Nc1ncnc2n[nH]c(Nc3ccc(F)cc3)c12	> 100 µM
CC(=N/N=C/c1ccccn1)/C(C)=N/N=C(C)/C(C)=N/N=C(C)/C(C)=N/N=C(C)/C(C)=N\N=C\c1ccccn1	> 100 µM
CCN(CCCN(CC)C(=O)Nc1c(C)cccc1C)C(=O)Nc1c(C)cccc1C	> 100 µM

// next entry
Req: For the molecule COc1cccc(CCCNC(=O)Cc2cc(OC)c(OC)cc2CO)c1 , report TGI.
Resp: > 100 µM

###

- Test system: SF-268 CNS
- Experimental details: NCI tumour cell line growth inhibition, 48 h
Measured metric: TGI

# annotated cases, reported TGI shown
O=c1[nH]c(Nc2nc3ccccc3[nH]2)nc(O)c1-c1ccccc1	> 100 µM
COc1cc(/C=C/C(=O)CC(=O)/C=C/c2ccc(OC(=O)CCCCC3CCSS3)c(OC)c2)ccc1OC(=O)CCCCC1CCSS1 (stereo not drawn)	> 100 µM
COc1cc(/C=C/c2cc(O)c(C(C)=O)c(O)c2)cc2c1O[C@]1(C)CC[C@@H](O)C(C)(C)[C@H]1C2	55.2 µM
CCOC(=O)c1cc2nc3ccccc3c(=O)n2c2ccccc12	> 10 µM
O=[N+]([O-])C(/C=C(\Cl)n1nnc2ccccc21)=C(/Cl)n1nnc2ccccc21	> 100 µM
CC1(C)C2CCC(=O)C1CC2 (stereo not drawn)	> 100 µM
O=c1[nH]c(=O)n(C2OC(CO)C(O)C2O)c2nc(-c3ccc(-c4ccccc4)cc3)cnc12 (stereo not drawn)	> 100 µM
CC[C@H](Nc1ncnc2nc[nH]c12)c1oc2ccccc2c(=O)c1-c1cccc(F)c1	> 100 µM
NC1(C(=O)OCc2ccccc2)CCCC1	31.4 µM
Nc1ncnc2n[nH]c(Nc3ccc(F)cc3)c12	> 100 µM

Req: Write TGI of COc1cc(NCc2ccc3oc(=O)c(-c4ccccc4)nc3c2)cc(OC)c1OC ; system used: SF-268 CNS
Resp: > 10 µM

Req: Check SF-268 CNS data and give TGI for Cc1cc(I)cc(CN(C)CCCN2CCCCC2)c1O .
Resp: 27.5 µM

Req: State recorded TGI with SF-268 CNS, entry Oc1ccc([I+]c2ccccc2)cc1O , no comment.
Resp: > 100 µM
